Origin of values: PubChem BioAssay AID2060912

viability, T/C overview
- System: HUVEC/MSC spheroids viability
- measurementDescription: Human HUVEC/MSC cell line growth inhibition [KRAS2];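 note: percent of DMSO vehicle control luminescence so 100% = untreated viability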
- conditionContext: second compound 0.0316 µM; first compound 0.3 µM; stronger effect = lower value
quantityName: viability, T/C (%)

{"compound": "CC(=O)OC12COC1CC(O)C1(C)C(=O)C(O)C3=C(C)C(OC(=O)C(O)C(NC(=O)OC(C)(C)C)c4ccccc4)CC(O)(C(OC(=O)c4ccccc4)C21)C3(C)C (configuration not stated) + C=CC(=O)N1CCN(c2nc(=O)n(-c3c(C)ccnc3C(C)C)c3nc(-c4c(O)cccc4F)c(F)cc23)C(C)C1", "number": 41.4}
{"compound": "CC1COCCN1c1cc(-c2ccnn2C)c2ccnc(-c3ccn[nH]3)c2n1 (configuration not stated) + C=CC(=O)N1CCN(c2nc(=O)n(-c3c(C)ccnc3C(C)C)c3nc(-c4c(O)cccc4F)c(F)cc23)C(C)C1", "number": 73.2}

====

- Tested on: HUVEC/MSC spheroids viability
- measurementDescription: Human HUVEC/MSC cell line growth inhibition [KRAS2];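 note: percent of DMSO vehicle control luminescence so 100% = untreated viability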
- conditionContext: second compound 3.16 µM; first compound 0.1 µM; stronger effect = lower value

{"molecule": "COc1cc2nccc(Oc3ccc(NC(=O)C4(C(=O)Nc5ccc(F)cc5)CC4)cc3)c2cc1OC + C=CC(=O)N1CCN(c2nc(=O)n(-c3c(C)ccnc3C(C)C)c3nc(-c4c(O)cccc4F)c(F)cc23)C(C)C1", "unitAbbrev": "%", "viability, T/C": 124}
{"molecule": "CC(C)n1nc(-c2ccc3oc(N)nc3c2)c2c(N)ncnc21 + C=CC(=O)N1CCN(c2nc(=O)n(-c3c(C)ccnc3C(C)C)c3nc(-c4c(O)cccc4F)c(F)cc23)C(C)C1", "unitAbbrev": "%", "viability, T/C": 56.4}
{"molecule": "CN(C)C/C=C/C(=O)Nc1cc2c(Nc3ccc(F)c(Cl)c3)ncnc2cc1O[C@H]1CCOC1 + COc1cc2nc(C)nc(NC(C)c3cc(N)cc(C(F)(F)F)c3)c2cc1OC1CCOC1", "unitAbbrev": "%", "viability, T/C": 83.7}
{"molecule": "CCNC(=O)CC1N=C(c2ccc(Cl)cc2)c2cc(OC)ccc2-n2c(C)nnc21 (stereo not given) + C=CC(=O)N1CCN(c2nc(=O)n(-c3c(C)ccnc3C(C)C)c3nc(-c4c(O)cccc4F)c(F)cc23)C(C)C1", "unitAbbrev": "%", "viability, T/C": 146}
{"molecule": "Cn1nccc1Nc1nccc(-c2cc3c(s2)C(C)(C)N(CCN2CCOCC2)C3=O)n1 + CC1OCC2(CCN(c3cnc(Sc4ccnc(N)c4Cl)c(N)n3)CC2)C1N", "unitAbbrev": "%", "viability, T/C": 90.2}

====

// viability, T/C lookup, one value per entry
- Test system: HUVEC/MSC spheroids viability
- measurementDescription: Human HUVEC/MSC cell line growth inhibition [KRAS2];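 note: percent of DMSO vehicle control luminescence so 100% = untreated viability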
- conditionContext: second compound 3.16 µM; first compound 0.1 µM; stronger effect = lower value

{"compound": "COc1cc(Nc2ncc3c(n2)-c2ccc(Cl)cc2C(c2c(F)cccc2OC)=NC3)ccc1C(=O)O + COc1cc2nc(C)nc(NC(C)c3cc(N)cc(C(F)(F)F)c3)c2cc1OC1CCOC1", "assaySystem": "HUVEC/MSC spheroids viability", "viability, T/C (%)": 94.8}
{"compound": "CC1(C)CCC(CN2CCN(c3ccc(C(=O)NS(=O)(=O)c4ccc(NCC5CCOCC5)c([N+](=O)[O-])c4)c(Oc4cnc5[nH]ccc5c4)c3)CC2)=C(c2ccc(Cl)cc2)C1 + CC1OCC2(CCN(c3cnc(Sc4ccnc(N)c4Cl)c(N)n3)CC2)C1N", "assaySystem": "HUVEC/MSC spheroids viability", "viability, T/C (%)": 91.9}
{"compound": "COc1cc(Nc2ncc3c(n2)-c2ccc(Cl)cc2C(c2c(F)cccc2OC)=NC3)ccc1C(=O)O + CNCc1ccccc1-c1csc(C(C)Nc2nc(C)nc3cc(OC)c(OC)cc23)c1", "assaySystem": "HUVEC/MSC spheroids viability", "viability, T/C (%)": 106}
{"compound": "CC(C)NCC(C(=O)N1CCN(c2ncnc3c2C(C)CC3O)CC1)c1ccc(Cl)cc1 (stereo not given) + CC1OCC2(CCN(c3cnc(Sc4ccnc(N)c4Cl)c(N)n3)CC2)C1N", "assaySystem": "HUVEC/MSC spheroids viability", "viability, T/C (%)": 74.4}
{"compound": "Cn1nccc1Nc1nccc(-c2cc3c(s2)C(C)(C)N(CCN2CCOCC2)C3=O)n1 + C=CC(=O)N1CCN(c2nc(=O)n(-c3c(C)ccnc3C(C)C)c3nc(-c4c(O)cccc4F)c(F)cc23)C(C)C1", "assaySystem": "HUVEC/MSC spheroids viability", "viability, T/C (%)": 129}
